Cited source for all entries: patent US10526291B2

study.system: BRD4 (Homo sapiens, UniProt O60885)
experiment.notes: Differential Scanning Fluorimetry (DSF), stability of BRD4 upon ligand binding
experimental.conditions: 100 μM protein, 4 μM compound and 2% DMSO
Strictly below 6 °C in ΔTm at 4 µM: Met. Otherwise: Not met.

Some solved cases for reference:
> print(dat)
                              sample.smiles  class.assignment
1  CCS(=O)(=O)Nc1cc(Nc2nc(Nc3ccc(N4CCN(C)CC4)cc3)ncc2C)ccc1Cl           Not met
2  COc1cc(Nc2nc(Nc3ccc(N4CCN(C)CC4)cc3)ncc2C)ccc1Cl               Met
3  Cc1cnc(Nc2ccc(N3CCN(C)CC3)cc2)nc1Nc1cc(NS(=O)(=O)C2CC2)cc(NS(=O)(=O)C2CC2)c1               Met
4  COc1cccc(Nc2nc(Nc3ccc(N4CCN(C)CC4)cc3)ncc2Cl)c1               Met

Next, consider the following compound.
Check if ΔTm at 4 µM falls below 6 °C for Cc1cnc(Nc2ccc(N3CCN(C)CC3)cc2)nc1Nc1cccc([N+](=O)[O-])c1 . Met

* * *

experiment.notes: Solubility in PBS buffer
Type: physicochemical
experimental.conditions: aqueous with cosolvent or surfactant or cyclodextrin; PBS buffer (~9.3% DMSO); read-out: Solubility
endpoint.label: Solubility (µM)
Note: unit µM is implicit; provide only the numeric part.

get_value(item= Cc1cnc(Nc2ccc(N3CCN(C)CC3)cc2)nc1Nc1ccc(Cl)c(NS(=O)(=O)C(C)(C)C)c1 , readout=Solubility) returns 650

* * *

study.system: BRDT (Homo sapiens)
endpoint.label: pIC50
Give only the number. pIC50 is defined as minus log10 of concentration in molar units.

The value of pIC50 measured for the compound Cc1cnc(Nc2ccc(N3CCN(C)CC3)cc2)nc1Nc1ccc(Cl)c(NS(=O)(=O)C(C)(C)C)c1 [drawing 109] turned out to be 7.56

* * *

study.system: BRD4 (Homo sapiens, UniProt O60885)
experiment.notes: Differential Scanning Fluorimetry (DSF), stability of BRD4 upon ligand binding
experimental.conditions: 100 μM protein, 4 μM compound and 2% DMSO
Note to self: values exactly at 3 °C are t. So ΔTm at 4 µM at or above 3 °C is t, below is f.

Past entries and their recorded results:
> print(dat)
                              sample.smiles                         study.system  class.assignment
1  COc1cc(Nc2nc(Nc3ccc(N4CCN(C)CC4)cc3)ncc2Cl)cc(OC)c1  BRD4 (Homo sapiens, UniProt O60885)                 t
2  Cc1cnc(Nc2ccc(CC(=O)N3CCN(C)CC3)cc2)nc1Nc1ccc(Cl)c(NS(=O)(=O)C(C)(C)C)c1  BRD4 (Homo sapiens, UniProt O60885)                 t
3  CN1CCN(c2ccc(Nc3ncc(Cl)c(Nc4ccc5c(c4)OCCO5)n3)cc2)CC1  BRD4 (Homo sapiens, UniProt O60885)                 f
4  Cc1cnc(Nc2ccc(N3CCN(C)CC3)cc2)nc1Nc1ccc(Cl)c(OC(C)C)c1  BRD4 (Homo sapiens, UniProt O60885)                 t

Hi team, for COc1cc(Nc2nc(Nc3ccc(N4CCN(C)CC4)cc3)nc(C)c2C)cc(OC)c1OC , is the recorded ΔTm at 4 µM at or above 3 °C? t

// inclusive: ΔTm at 4 µM at least 3 °C? input: Cc1cnc(Nc2ccc(N3CCN(C)CC3)cc2)nc1Nc1ccc2c(c1)OCO2 f

ΔTm at 4 µM >= 3 °C for CN1CCN(c2ccc(Nc3nc(Nc4cccc(S(=O)(=O)NC(C)(C)C)c4)c4ccccc4n3)cc2)CC1 ? f

Check this compound for ΔTm at 4 µM at or above 3 °C: CCOC(=O)c1cnc(Nc2ccc(N3CCN(C)CC3)cc2)nc1Nc1ccc(Cl)c(OC)c1 f

Quick check, ΔTm at 4 µM >= 3 °C? Cc1cnc(Nc2ccc(N3CCN(C)CC3)cc2)nc1Nc1cccc(NS(=O)(=O)N(C)C)c1 t
